Biological target: thrombin receptor (PAR-1) (Homo sapiens, UniProt P25116)
Construct: CHRF membranes (Jones, Biochim. Biophys. Acta 1992, 1136, 272) are thawed from −70° C; endogenous in cells; host or cells: CHRF cell membranes
Sequence (P25116 22-425): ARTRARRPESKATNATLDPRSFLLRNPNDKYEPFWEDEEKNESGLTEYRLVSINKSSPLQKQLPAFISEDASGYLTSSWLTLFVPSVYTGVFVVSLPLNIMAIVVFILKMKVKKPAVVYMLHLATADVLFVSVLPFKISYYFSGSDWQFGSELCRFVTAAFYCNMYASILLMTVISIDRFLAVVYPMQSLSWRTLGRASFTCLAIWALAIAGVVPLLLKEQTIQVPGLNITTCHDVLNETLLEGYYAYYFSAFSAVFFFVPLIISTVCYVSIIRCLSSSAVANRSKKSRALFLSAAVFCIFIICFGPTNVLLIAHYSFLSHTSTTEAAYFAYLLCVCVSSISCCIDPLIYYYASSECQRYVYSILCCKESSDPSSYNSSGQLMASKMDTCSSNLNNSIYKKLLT
Assay: In vitro thrombin receptor binding assay (CHRF membranes, tritiated 721-40)
Details: Table 1, read-out: Recptr Bdg. IC50
Please note: IC50 exactly at 300 nM is no. Only values below 300 nM get yes.

Reference set, count: 2
O=C(CN(Cc1ccccc1)C(=O)[C@H](Cc1ccc(F)c(F)c1)NC(=O)Nc1ccc2c(CN3CCCC3)cn(Cc3c(Cl)cccc3Cl)c2c1)NCc1ccccc1	no
NCCCN(Cc1cccs1)C(=O)[C@H](Cc1ccc(F)c(F)c1)NC(=O)Nc1ccc2c(CN3CCCC3)cn(Cc3c(Cl)cccc3Cl)c2c1	no

Report whether reported IC50 is lower than 300 nM (strictly) for NCCN(CC(=O)NCc1ccccc1)C(=O)[C@H](Cc1ccc(F)c(F)c1)NC(=O)Nc1ccc2c(CN3CCCC3)nn(Cc3c(Cl)cccc3Cl)c2c1
no

In the record for NCCCCN(CC(=O)NCc1ccccc1)C(=O)[C@H](Cc1ccc(F)c(F)c1)NC(=O)Nc1ccc2c(CN3CCCC3)cn(Cc3c(Cl)cccc3Cl)c2c1 , is IC50 less than 300 nM?
yes

====

tested on: gel-filtered platelets (thrombin-induced aggregation); test: In vitro inhibition of thrombin-induced gel-filtered platelet aggregation assay; assay type: cell-based; details: Table 1; platelet aggregation stimulated by thrombin, gel-filtered human platelets; read-out: GFP Aggr. IC50
measuredProperty: log10 of IC50 (log10 of the value in nM)
Heads up, the numbers here are log10 of IC50 in nM units.

NCCN(CC(=O)NCc1ccccc1)C(=O)[C@H](Cc1ccc(F)c(F)c1)NC(=O)Nc1ccc2c(CN3CCCC3)cn(Cc3c(Cl)cccc3Cl)c2c1	3.23

Look up and report measured log10 of IC50 for this entry: NCCCCN(CC(=O)NCc1ccccc1)C(=O)[C@H](Cc1ccc(F)c(F)c1)NC(=O)Nc1ccc2c(CN3CCCC3)cn(Cc3c(Cl)cccc3Cl)c2c1
2.41

Return the recorded log10 of IC50 value; entry: NCCCN(Cc1cccs1)C(=O)[C@H](Cc1ccc(F)c(F)c1)NC(=O)Nc1ccc2c(CN3CCCC3)cn(Cc3c(Cl)cccc3Cl)c2c1
2.78

Answer with reported log10 of IC50 of NCCCCN(CC(=O)NCc1ccccc1)C(=O)[C@H](Cc1ccc(F)c(F)c1)NC(=O)Nc1ccc2c(CN3CCCC3)nn(Cc3c(Cl)cccc3Cl)c2c1
2.41

Indicate the recorded log10 of IC50 value for this compound: NCCN(CC(=O)NCc1ccccc1)C(=O)[C@H](Cc1ccc(F)c(F)c1)NC(=O)Nc1ccc2c(CN3CCCC3)nn(Cc3c(Cl)cccc3Cl)c2c1
3.11

Specify reported log10 of IC50 for the compound shown: O=C(CN(Cc1ccccc1)C(=O)[C@H](Cc1ccc(F)c(F)c1)NC(=O)Nc1ccc2c(CN3CCCC3)cn(Cc3c(Cl)cccc3Cl)c2c1)NCc1ccccc1
4.34

====

biological target: thrombin receptor (PAR-1) (Homo sapiens, UniProt P25116); construct: CHRF membranes (Jones, Biochim. Biophys. Acta 1992, 1136, 272) are thawed from −70° C; endogenous in cells; host or cells: CHRF cell membranes; assay: In vitro thrombin receptor binding assay (CHRF membranes, tritiated 721-40); settings: Table 2, read-out: Recptr Bdg. IC50
As shown below, each of these compounds has a reported pIC50 value.
# reply with the number alone; pIC50 is -log10 of concentration in mol/L

N=C(N)NCCC[C@H](NC(=O)CN(Cc1ccc(Cl)cc1)C(=O)Nc1ccc2c(CN3CCCC3)cn(Cc3c(Cl)cccc3Cl)c2c1)C(=O)NCc1ccccc1	5.16

# assay system thrombin receptor (PAR-1) (Homo sapiens, UniProt P25116): give pIC50 of N=C(N)NCCC[C@H](NC(=O)CN(Cc1ccc(F)cc1)C(=O)Nc1ccc2c(CN3CCCC3)cn(Cc3c(Cl)cccc3Cl)c2c1)C(=O)NCc1ccccc1
5.09

Provenance of the data: patent US6365617B1
